System: LXRb homodimer (NR concentration 270 nM)
assaySummary: PBM binding z-score (relative to random genomic background probes); higher = stronger binding; sequences stand for … in GC…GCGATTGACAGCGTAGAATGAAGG
Binary call on PBM binding z-score: criterion met from 0.08 upward, criterion not met beneath that.

Observe how each entry below is paired with its result.
1. CCTAGTTGGTCAAGGTCACCCACGCTATAGGTAC :: criterion met
2. GCTAGTTGGTCAGTAAAAGGTCACACACCGGTCG :: criterion met
3. CCGACTGGGCCAGAAAGGTTACCATACCATCCGG :: criterion not met
4. ATAGACAGGTGAGTGAAGGTAACTCAGCTGGACG :: criterion not met
5. TAGCCTAGGTCATGTGCCAGTATACCACGCGAAC :: criterion met
6. GCTGCTAGGTCCACTGATGGTCAGCTAAAGCTCG :: criterion not met

Form field: PBM binding z-score at least 0.08? Entry: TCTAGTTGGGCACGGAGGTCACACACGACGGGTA
criterion met

Form field: PBM binding z-score at least 0.08? Entry: ATCGAAAGGTGGAAGGTGAGTATACCCACCCGAA
criterion not met

Form field: PBM binding z-score at least 0.08? Entry: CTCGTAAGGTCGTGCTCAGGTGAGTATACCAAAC
criterion met
